# target.desc: AKR1B10 (Homo sapiens, UniProt O60218)
# Construct: 6xHis; made in house; host or cells: E. coli BL21 (DE3)
# Sequence (O60218 whole entry): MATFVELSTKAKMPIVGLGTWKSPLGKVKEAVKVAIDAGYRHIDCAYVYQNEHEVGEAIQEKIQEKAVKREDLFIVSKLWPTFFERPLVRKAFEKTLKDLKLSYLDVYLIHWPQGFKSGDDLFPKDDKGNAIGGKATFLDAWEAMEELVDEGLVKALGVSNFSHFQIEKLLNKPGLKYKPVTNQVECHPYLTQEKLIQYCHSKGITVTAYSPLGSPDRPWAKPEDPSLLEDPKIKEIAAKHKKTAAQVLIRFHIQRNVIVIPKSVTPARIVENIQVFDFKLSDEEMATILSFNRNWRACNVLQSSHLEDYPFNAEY
# method.summary: AKR1B10-catalysed farnesal reduction (physiological substrate)
# Assay type: biochemical
# study.conditions: farnesal at KM 5 μM; mean ± SD, at least three experiments
Consider the following molecules; for each one, report its pIC50.
// scale note: pIC50 = -log10(conc_M); give the bare number

Requested field: pIC50. Item: `CC(C)=CCc1c(O)cc(O)c2c1O[C@H](c1ccc(O)cc1)CC2=O`
5.40

Cool, now COc1cc(O)c(CC=C(C)C)c2c1C(=O)CC(c1ccc(O)cc1)O2 (stereo not drawn)
5.37

Cool, now `COc1cc(O)c(CC=C(C)C)c(O)c1C(=O)/C=C/c1ccc(O)cc1`
4.38

Cited source: paper PMC6010053
